study_target: 3',5'-cyclic-AMP phosphodiesterase 4B (Homo sapiens)
Sequence (Q07343 whole entry): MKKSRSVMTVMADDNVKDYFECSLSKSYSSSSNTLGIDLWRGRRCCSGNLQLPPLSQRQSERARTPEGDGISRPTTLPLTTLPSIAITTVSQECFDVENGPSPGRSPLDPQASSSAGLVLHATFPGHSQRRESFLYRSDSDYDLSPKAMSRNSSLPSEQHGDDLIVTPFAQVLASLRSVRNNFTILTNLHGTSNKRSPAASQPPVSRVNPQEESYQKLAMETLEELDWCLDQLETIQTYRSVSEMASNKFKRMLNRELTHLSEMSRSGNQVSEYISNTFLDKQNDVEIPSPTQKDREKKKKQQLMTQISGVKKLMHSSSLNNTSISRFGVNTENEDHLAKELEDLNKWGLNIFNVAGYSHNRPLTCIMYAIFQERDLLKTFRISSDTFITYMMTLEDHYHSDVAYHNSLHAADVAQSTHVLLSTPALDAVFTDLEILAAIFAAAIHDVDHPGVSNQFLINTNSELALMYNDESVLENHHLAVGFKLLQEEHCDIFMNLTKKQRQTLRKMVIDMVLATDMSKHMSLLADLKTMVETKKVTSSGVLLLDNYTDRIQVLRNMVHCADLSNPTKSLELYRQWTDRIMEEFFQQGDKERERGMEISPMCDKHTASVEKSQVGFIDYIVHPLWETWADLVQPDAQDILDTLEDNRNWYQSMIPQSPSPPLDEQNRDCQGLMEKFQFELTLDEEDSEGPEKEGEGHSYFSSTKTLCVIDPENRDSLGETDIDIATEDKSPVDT
test_protocol: Inhibition of recombinant human PDE-4B expressed in Escherichia coli at 20 uM using cAMP as substrate incubated for 60 mins by PDE4 assay kit method relative to control
readout_kind: inhibition (%)
Numeric answer only, unit % assumed.

IN: Quick one: inhibition for "CC(C)Cn1c(=O)n(C)c(=O)c2nc[nH]c21" ?
OUT: 38

IN: Quick one: inhibition for "Cc1cc(-c2c[nH]c3ccc([N+](=O)[O-])cc23)c(=O)[nH]n1" ?
OUT: 26.8

IN: Quick one: inhibition for CC1=NNC(=O)C(c2c[nH]c3ccccc23)C1 (stereo not given) ?
OUT: 32.3

IN: Quick one: inhibition for CC1=NNC(=O)C(c2c[nH]c3ccc(I)cc23)C1 (stereo not given) ?
OUT: 2.2

IN: Quick one: inhibition for "Cc1cc(-c2c[nH]c3ccc(Br)cc23)c(=O)n(Cc2ccccc2)n1" ?
OUT: 14.2

The reported measurements were obtained from ChEMBL document CHEMBL4732027.
